Source of measurements: patent US10131652B2

Would you mind telling me the reported Velvetleaf plant response rating of each entry?
System: velvetleaf (Abutilon theophrasti)
Assay: Test D pre-/postemergence plant response
Format: in vivo
Settings: Postemergence, 31 g ai/ha; scale 0 to 100 (0 no effect, 100 complete control)

Fill in Velvetleaf plant response rating for record `Cc1cc(-c2c(F)cccc2Oc2ncc(Cl)cn2)on1`
60

Hello, please tell me recorded Velvetleaf plant response rating for this one: `FC(F)c1cc(-c2c(Cl)cccc2Oc2ncc(Cl)cn2)on1`
85

Answer with the recorded Velvetleaf plant response rating for the molecule listed here: `Cc1cc(-c2c(F)cccc2Oc2ncc(Br)cn2)on1`
40

Give the measured Velvetleaf plant response rating for `Cc1cc(-c2ccccc2Oc2ncc(Cl)cn2)no1`
20

Supply reported Velvetleaf plant response rating belonging to this molecule: `FC(F)(F)c1cc(-c2c(I)cccc2Oc2ncc(Cl)cn2)no1`
15

Look up Velvetleaf plant response rating of `N#Cc1cccc(Oc2ncc(Cl)cn2)c1-c1cc(C(F)F)on1` and report it.
40
